- STUDY SYSTEM: MDR1 (ABCB1, P-glycoprotein) (Homo sapiens, UniProt P08183)
- Sequence (P08183 whole entry): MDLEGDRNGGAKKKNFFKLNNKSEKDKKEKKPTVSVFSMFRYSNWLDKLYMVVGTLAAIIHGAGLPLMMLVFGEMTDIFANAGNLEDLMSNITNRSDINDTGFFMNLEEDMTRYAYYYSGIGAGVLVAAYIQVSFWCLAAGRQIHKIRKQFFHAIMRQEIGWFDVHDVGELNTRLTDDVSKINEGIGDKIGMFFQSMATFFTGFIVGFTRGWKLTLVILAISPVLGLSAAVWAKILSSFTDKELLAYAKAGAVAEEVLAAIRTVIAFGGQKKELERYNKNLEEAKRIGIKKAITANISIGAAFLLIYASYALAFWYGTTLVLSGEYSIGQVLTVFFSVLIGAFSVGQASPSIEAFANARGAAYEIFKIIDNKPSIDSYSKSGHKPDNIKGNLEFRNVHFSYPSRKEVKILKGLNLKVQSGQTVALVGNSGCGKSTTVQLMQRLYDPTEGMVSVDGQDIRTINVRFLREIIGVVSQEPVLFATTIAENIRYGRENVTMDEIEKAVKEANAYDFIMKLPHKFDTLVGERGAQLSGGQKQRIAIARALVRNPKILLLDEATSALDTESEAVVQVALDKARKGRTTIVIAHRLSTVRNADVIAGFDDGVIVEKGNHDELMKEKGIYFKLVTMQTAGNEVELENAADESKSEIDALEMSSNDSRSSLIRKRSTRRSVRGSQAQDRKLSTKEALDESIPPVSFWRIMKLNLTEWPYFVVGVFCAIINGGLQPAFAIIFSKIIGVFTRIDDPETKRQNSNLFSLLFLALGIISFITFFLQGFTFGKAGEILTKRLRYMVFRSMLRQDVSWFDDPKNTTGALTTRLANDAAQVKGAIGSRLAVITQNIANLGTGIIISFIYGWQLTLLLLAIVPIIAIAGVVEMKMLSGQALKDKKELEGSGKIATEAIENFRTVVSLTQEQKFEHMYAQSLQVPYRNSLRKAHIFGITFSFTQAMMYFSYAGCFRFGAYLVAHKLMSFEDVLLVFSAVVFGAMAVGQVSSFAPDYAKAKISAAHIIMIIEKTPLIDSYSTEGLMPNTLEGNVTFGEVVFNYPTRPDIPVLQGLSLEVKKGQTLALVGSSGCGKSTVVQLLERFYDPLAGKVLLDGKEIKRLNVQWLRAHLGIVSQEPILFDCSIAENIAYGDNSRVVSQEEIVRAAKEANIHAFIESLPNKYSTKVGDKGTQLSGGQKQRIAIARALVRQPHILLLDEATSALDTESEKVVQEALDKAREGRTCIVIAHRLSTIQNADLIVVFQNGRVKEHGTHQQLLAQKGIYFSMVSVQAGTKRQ
- ASSAY EXPLANATION: Inhibition of MDR1 overexpressed in MDCK cells at 5 uM relative to LSN335984
- Format: cell-based
- PROTOCOL CONDITIONS: dog
Entries and their measured inhibition at 5 µM follow.
MEASURED METRIC: inhibition at 5 µM (%)

{"columns": ["ITEM SMILES", "STUDY SYSTEM", "MEASURED METRIC", "RECORDED MEASUREMENT"],
 "data": [
  ["CN(C)c1ccc(-c2cc(-c3ccc(N)cc3)[se+]c(-c3ccc(N)cc3)c2)cc1.F[P-](F)(F)(F)(F)F", "MDR1 (ABCB1, P-glycoprotein) (Homo sapiens, UniProt P08183)", "inhibition at 5 µM", 6],
  ["CN(C)c1ccc(-c2cc(-c3ccc(N(C)C)cc3)[se+]c(C(C)(C)C)c2)cc1.[I-]", "MDR1 (ABCB1, P-glycoprotein) (Homo sapiens, UniProt P08183)", "inhibition at 5 µM", 23],
  ["CN(C)c1ccc(-c2cc(-c3ccc(N)cc3)[s+]c(-c3ccc(N(C)C)cc3)c2)cc1.F[P-](F)(F)(F)(F)F", "MDR1 (ABCB1, P-glycoprotein) (Homo sapiens, UniProt P08183)", "inhibition at 5 µM", 2],
  ["Cc1cc(C)c(-c2cc(-c3ccc(N(C)C)cc3)[te+]c(-c3ccc(N(C)C)cc3)c2)c(C)c1.F[P-](F)(F)(F)(F)F", "MDR1 (ABCB1, P-glycoprotein) (Homo sapiens, UniProt P08183)", "inhibition at 5 µM", 32],
  ["Cc1cc(-c2ccc(N(C)C)cc2)cc(-c2ccc(N(C)C)cc2)[s+]1.[I-]", "MDR1 (ABCB1, P-glycoprotein) (Homo sapiens, UniProt P08183)", "inhibition at 5 µM", 13],
  ["CCCc1cc(-c2ccc(N(C)C)cc2)cc(-c2ccc(N(C)C)cc2)[s+]1.[I-]", "MDR1 (ABCB1, P-glycoprotein) (Homo sapiens, UniProt P08183)", "inhibition at 5 µM", 15],
  ["CN(C)c1ccc(-c2cc(-c3ccccc3)[se+]c(-c3ccc(N)cc3)c2)cc1.F[P-](F)(F)(F)(F)F", "MDR1 (ABCB1, P-glycoprotein) (Homo sapiens, UniProt P08183)", "inhibition at 5 µM", 5],
  ["CN(C)c1ccc(-c2cc(-c3ccccc3)[s+]c(-c3ccc(N)cc3)c2)cc1.F[P-](F)(F)(F)(F)F", "MDR1 (ABCB1, P-glycoprotein) (Homo sapiens, UniProt P08183)", "inhibition at 5 µM", 7],
  ["CN(C)c1ccc(-c2cc(-c3ccc(N(C)C)cc3)[s+]c(C(C)(C)C)c2)cc1.[I-]", "MDR1 (ABCB1, P-glycoprotein) (Homo sapiens, UniProt P08183)", "inhibition at 5 µM", 25]
]}

* * *

- ASSAY EXPLANATION: Inhibition of verapamil-induced ATPase activity in lipid activated mouse P-glycoprotein mdr3 cys-less mutant assessed as ATP hydrolysis per ug of protein
Label key: met means IC50 under 10 µM; not met means IC50 of 10 µM or more.

{"columns": ["ITEM SMILES", "QUALITATIVE LABEL"],
 "data": [
  ["c1ccc(-c2cc(-c3ccc(N4CCOCC4)cc3)cc(-c3ccc(N4CCOCC4)cc3)[s+]2)cc1", "not met"],
  ["CN(C)c1ccc(-c2cc(-c3ccc(N(C)C)cc3)[s+]c(C(C)(C)C)c2)cc1.[I-]", "met"],
  ["Cc1cc(C)c(-c2cc(-c3ccc(N(C)C)cc3)[s+]c(-c3ccc(N(C)C)cc3)c2)c(C)c1", "not met"],
  ["CN(C)c1ccc(-c2cc(-c3cccs3)cc(-c3ccc(N(C)C)cc3)[te+]2)cc1", "met"],
  ["Nc1ccc(-c2cc(-c3ccc(N4CCOCC4)cc3)cc(-c3ccc(N4CCOCC4)cc3)[s+]2)cc1", "not met"],
  ["CN(C)c1ccc(-c2cc(-c3ccc(N4CCOCC4)cc3)[se+]c(-c3ccc(N4CCOCC4)cc3)c2)cc1", "not met"],
  ["CCCc1cc(-c2ccc(N(C)C)cc2)cc(-c2ccc(N(C)C)cc2)[s+]1.[I-]", "not met"],
  ["CN(C)c1ccc(-c2cc(-c3ccc(N)cc3)[s+]c(-c3ccc(N(C)C)cc3)c2)cc1.F[P-](F)(F)(F)(F)F", "met"],
  ["Cc1cc(-c2ccc(N(C)C)cc2)[s+]c(-c2ccc(N(C)C)cc2)c1", "met"],
  ["CCc1cc(-c2ccc(N(C)C)cc2)cc(-c2ccc(N(C)C)cc2)[s+]1", "met"],
  ["Cc1cc(C)c(-c2cc(-c3ccc(N(C)C)cc3)[te+]c(-c3ccc(N(C)C)cc3)c2)c(C)c1.F[P-](F)(F)(F)(F)F", "met"]
]}

Value source: ChEMBL document CHEMBL1142530
